Taken from the supplement of paper PMC10724198.

Recorded protein stability index for the following sequences
Tested on: Saccharomyces cerevisiae
Assay: protein stability index of tFT-peptide fusion (C-terminal peptide) (PSI (0-1 scale)); higher = more stable (slower turnover);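 note: PSI is a weighted mean of sequencing reads over stability bins, variants kept only with over 10 reads, mCherry proximal and sfGFP distal, peptide attached via GGGS linker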
Conditions: genetic background: wild type; temperature: 37 C
Answer as a number with no unit attached.

{"Residue string": "LEDVLFVMVINI", "Tested target": "Saccharomyces cerevisiae", "protein stability index": 0.49}

Form field protein stability index for item CRFYIRITRRYS on Saccharomyces cerevisiae: 0.255

Form field protein stability index for item LPSPPSSPPLRP on Saccharomyces cerevisiae: 0.701

Form field protein stability index for item TSFCIFFVRFVI on Saccharomyces cerevisiae: 0.469

Form field protein stability index for item STVGAWGRVGEG on Saccharomyces cerevisiae: 0.472

Form field protein stability index for item CFWLLSSLLLFL on Saccharomyces cerevisiae: 0.514

Form field protein stability index for item LAVVCIHAVSSF on Saccharomyces cerevisiae: 0.518

Form field protein stability index for item VELRNCYLLVKA on Saccharomyces cerevisiae: 0.34

Form field protein stability index for item RSFPCITVFIRA on Saccharomyces cerevisiae: 0.509

Form field protein stability index for item VYCLVLFFSQWC on Saccharomyces cerevisiae: 0.509

Form field protein stability index for item VVLRCGCLVFIN on Saccharomyces cerevisiae: 0.0809

Form field protein stability index for item ACACFWVVWVGW on Saccharomyces cerevisiae: 0.402

Form field protein stability index for item FSLWSRRSITVY on Saccharomyces cerevisiae: 0.0886

Form field protein stability index for item PPRRCFPLLLFF on Saccharomyces cerevisiae: 0.331

Form field protein stability index for item YVLLSRVSVFSA on Saccharomyces cerevisiae: 0.501

Form field protein stability index for item GIFYVRTIWSCG on Saccharomyces cerevisiae: 0.332

Form field protein stability index for item FCSNLLSMVIAV on Saccharomyces cerevisiae: 0.438

Form field protein stability index for item PWLLHTPLSLVF on Saccharomyces cerevisiae: 0.4

Form field protein stability index for item VLSCIPRLAIAA on Saccharomyces cerevisiae: 0.318

Form field protein stability index for item PSVRCVVACFIN on Saccharomyces cerevisiae: 0.165

Form field protein stability index for item VVTFLCPLVGHV on Saccharomyces cerevisiae: 0.507

Form field protein stability index for item CRLLVFGLCVGA on Saccharomyces cerevisiae: 0.39

Form field protein stability index for item SVYLYFQVVAYG on Saccharomyces cerevisiae: 0.156

Form field protein stability index for item SLSALPRPPRLL on Saccharomyces cerevisiae: 0.694

Form field protein stability index for item CVILVVISGLLG on Saccharomyces cerevisiae: 0.349

---

Tested on: Saccharomyces cerevisiae
Assay: protein stability index of tFT-peptide fusion (C-terminal peptide) (PSI (0-1 scale)); higher = more stable (slower turnover)
Conditions: genetic background: wild type; temperature: 30 C
Endpoint name: protein stability index

{"Residue string": "FCVLLFYCFFFF", "Tested target": "Saccharomyces cerevisiae", "Measurement": 0.273}
{"Residue string": "RVCVFVLFGLCF", "Tested target": "Saccharomyces cerevisiae", "Measurement": 0.315}
{"Residue string": "LESYGLRDSTSG", "Tested target": "Saccharomyces cerevisiae", "Measurement": 0.681}
{"Residue string": "VCFAWWGARCVA", "Tested target": "Saccharomyces cerevisiae", "Measurement": 0.357}
{"Residue string": "SVLAIWLTVTLK", "Tested target": "Saccharomyces cerevisiae", "Measurement": 0.0938}
{"Residue string": "WVFMVILLVFLV", "Tested target": "Saccharomyces cerevisiae", "Measurement": 0.228}

Lab note: MVVSLVLCFWAS gave protein stability index of 0.244

Lab note: AVLAALVSTLAG gave protein stability index of 0.406

Lab note: IKKKKRKKIKAN gave protein stability index of 0.211

---

Test system: Saccharomyces cerevisiae
Experiment: protein stability index of tFT-peptide fusion (C-terminal peptide) (PSI (0-1 scale)); higher = more stable (slower turnover)
Details: genetic background: doa10 deletion; temperature: 30 C
Classes are defined on protein stability index with ranges low bracket = under 0.2, middle bracket = from 0.2 up to 0.3, high bracket = 0.3 and over

{"Residue string": "SCFCFRVLLCSF", "Tested target": "Saccharomyces cerevisiae", "Group label": "high bracket"}
{"Residue string": "FCGLLGVCLVMG", "Tested target": "Saccharomyces cerevisiae", "Group label": "low bracket"}
{"Residue string": "VFFLAFYFYRCF", "Tested target": "Saccharomyces cerevisiae", "Group label": "low bracket"}
{"Residue string": "VGFCICISIMSF", "Tested target": "Saccharomyces cerevisiae", "Group label": "low bracket"}

Challenge: For DPPRPIMRIHMI , which protein stability index bin applies?
Response given: low bracket

---

Tested on: Saccharomyces cerevisiae
Experiment: protein stability index of tFT-peptide fusion (C-terminal peptide) (PSI (0-1 scale)); higher = more stable (slower turnover)
Conditions: genetic background: das1 deletion; temperature: 30 C
Endpoint name: protein stability index
Answer as a number with no unit attached.

{"Residue string": "FLSRLVGFYFVV", "Measurement": 0.587}
{"Residue string": "PVGRSVFFVWFL", "Measurement": 0.587}
{"Residue string": "WGRFFWGCGVWV", "Measurement": 0.6}

Lab note: PVKGTMIKAKNT gave protein stability index of 0.607

---

Recorded protein stability index for the following sequences
System: Saccharomyces cerevisiae
Assay: protein stability index of tFT-peptide fusion (C-terminal peptide) (PSI (0-1 scale)); higher = more stable (slower turnover)
Details: genetic background: das1 deletion; temperature: 37 C
Answer as a number with no unit attached.

{"Residue string": "ILLHSFFSFYLL", "Tested target": "Saccharomyces cerevisiae", "protein stability index": 0.593}

Lab note: LFIFYCFFFLVR gave protein stability index of 0.395

Lab note: FFVFMAKLRTCN gave protein stability index of 0.594

Lab note: PWLLHTPLSLVF gave protein stability index of 0.403

Lab note: LQCVYFVFFICF gave protein stability index of 0.412

---

System: Saccharomyces cerevisiae
Assay: protein stability index of tFT-peptide fusion (C-terminal peptide) (PSI (0-1 scale)); higher = more stable (slower turnover)
Conditions: genetic background: wild type; temperature: 30 C
Endpoint name: protein stability index
Answer as a number with no unit attached.

Known protein stability index results, listed for orientation:
{"Residue string": "TRGGTVKDRQQR", "Tested target": "Saccharomyces cerevisiae", "Measurement": 0.702}
{"Residue string": "PLVRGSLGALGR", "Tested target": "Saccharomyces cerevisiae", "Measurement": 0.657}
{"Residue string": "FRVSVRTVSSLR", "Tested target": "Saccharomyces cerevisiae", "Measurement": 0.654}
{"Residue string": "SPSPPPTPGSPP", "Tested target": "Saccharomyces cerevisiae", "Measurement": 0.718}
{"Residue string": "LASPPIIVFSQM", "Tested target": "Saccharomyces cerevisiae", "Measurement": 0.556}
{"Residue string": "YVASSWRHCFII", "Tested target": "Saccharomyces cerevisiae", "Measurement": 0.221}
{"Residue string": "PVETVRCCLACP", "Tested target": "Saccharomyces cerevisiae", "Measurement": 0.646}
{"Residue string": "KPLDPNRHVIPG", "Tested target": "Saccharomyces cerevisiae", "Measurement": 0.652}
{"Residue string": "YKNDNDKCIQMR", "Tested target": "Saccharomyces cerevisiae", "Measurement": 0.678}
{"Residue string": "CRLLVFGLCVGA", "Tested target": "Saccharomyces cerevisiae", "Measurement": 0.342}

Lab note: FVFQYVVGNFAI gave protein stability index of 0.617

Lab note: PHTLKPNPLSTA gave protein stability index of 0.61

Lab note: FLLRFSPASRAV gave protein stability index of 0.691

Lab note: RAVKLHIIIFDG gave protein stability index of 0.551

---

Tested on: Saccharomyces cerevisiae
Experiment: protein stability index of tFT-peptide fusion (C-terminal peptide) (PSI (0-1 scale)); higher = more stable (slower turnover)
Settings: genetic background: wild type; temperature: 30 C
Lab note: compare protein stability index against 0.6. Equal or greater, write 1 (yes). Smaller, write 0 (no).

Record excerpt, results attached:
{"Residue string": "LWVMVLFFPGCS", "Group label": "0 (no)"}
{"Residue string": "SNGVCVGGSESA", "Group label": "1 (yes)"}
{"Residue string": "TVKAGESILEQR", "Group label": "1 (yes)"}
{"Residue string": "PPPLPPICTRPI", "Group label": "1 (yes)"}
{"Residue string": "SLPPPPLLPRPL", "Group label": "1 (yes)"}

From here, focus on the item given below.
Challenge: Would you say LARGPDETPAGA shows protein stability index at minimum 0.6?
Response given: 1 (yes)

---

Recorded protein stability index for the following sequences
Test system: Saccharomyces cerevisiae
Assay: protein stability index of tFT-peptide fusion (C-terminal peptide) (PSI (0-1 scale)); higher = more stable (slower turnover)
Settings: genetic background: wild type; temperature: 30 C

Known protein stability index results, listed for orientation:
{"Residue string": "DFYSLAWHFWFL", "Measurement": 0.69}
{"Residue string": "SLVVSPRQLLPR", "Measurement": 0.704}
{"Residue string": "LGCGDSRSMVSL", "Measurement": 0.688}
{"Residue string": "RFGDWALGARVG", "Measurement": 0.72}
{"Residue string": "RRPQPPHKTAMP", "Measurement": 0.701}

Form field protein stability index for item MLRSGDFSSPPN on Saccharomyces cerevisiae: 0.694

Form field protein stability index for item PPLLALSASRVT on Saccharomyces cerevisiae: 0.698

Form field protein stability index for item VSVLVAFDTLPG on Saccharomyces cerevisiae: 0.711
